Below is a list of entries, each paired with its recorded normalised response value.
Test system: BT-474
ASSAY PROTOCOL: normalised response (% of control), CellTox Green; higher = less cell death (100 = DMSO, 0 = benzethonium chloride kill control)
CONDITION DESCRIPTION: incubation time: 72 h
Field format: number, assumed %, no unit text.

Please review the following examples before continuing.
{"COMPOUND": "CO[C@@]12[C@H](COC(N)=O)C3=C(C(=O)C(C)=C(N)C3=O)N1C[C@@H]1N[C@@H]12 [Mitomycin C] (1000 nM)", "normalised response / %": 94.9}
{"COMPOUND": "CC(O)(CS(=O)(=O)c1ccc(F)cc1)C(=O)Nc1ccc(C#N)c(C(F)(F)F)c1 (configuration not stated) [Bicalutamide] (100 nM)", "normalised response / %": 102}

Returns the measured normalised response for the input compound. Input: Cn1cc(C2=C(c3cn(C4CCN(Cc5ccccn5)CC4)c4ccccc34)C(=O)NC2=O)c2ccccc21 [Enzastaurin] (100 nM) 101

Returns the measured normalised response for the input compound. Input: Cc1cc(Nc2nc(N[C@@H](C)c3ncc(F)cn3)ncc2Cl)[nH]n1 [AZD1480] (1000 nM) 95.3

###

Test system: MDA-MB-231
ASSAY PROTOCOL: drug sensitivity score (DSS), CellTiter-Glo (DSS (AUC-based score)); higher = stronger drug effect (viability inhibition or cytotoxicity); extreme values may be limits of the assay
CONDITION DESCRIPTION: incubation time: 72 h
ASSAY READOUT: drug sensitivity score

Please review the following examples before continuing.
{"ITEM SMILES": "C=CCN(/C=C1/C(=O)O[C@H](COC)[C@@]2(C)C1=C(O)C(=O)C1=C2[C@H](OC(C)=O)C[C@]2(C)C(=O)CC[C@@H]12)CC=C", "drug sensitivity score": 0}
{"ITEM SMILES": "CC(C)n1cnc2c(NCCc3ccc(O)cc3)nc(-c3csc4ccccc34)nc21", "drug sensitivity score": 0}
{"ITEM SMILES": "CNC(=O)c1ccccc1Sc1ccc2c(/C=C/c3ccccn3)n[nH]c2c1", "drug sensitivity score": 0}

Now for a further compound.
Checklist item: drug sensitivity score tested on MDA-MB-231, entry O=C(CCCCCCC(=O)Nc1ccccc1)NO , value? 5.59

###

Test system: MFM-223
CONDITION DESCRIPTION: 72 h
Note to self: use 1.0 only for EC50, CellTiter-Blue viability readings below 300 nM; a reading exactly at 300 nM still gets 0.0.

{"MOLECULE": "O=C(CCCCCCC(=O)Nc1ccccc1)NO [Vorinostat]", "CLASS NAME": 0.0}
{"MOLECULE": "C=CCn1c(=O)c2cnc(Nc3ccc(N4CCN(C)CC4)cc3)nc2n1-c1cccc(C(C)(C)O)n1 [MK1775]", "CLASS NAME": 1.0}
{"MOLECULE": "C/C(=C\\c1csc(C)n1)[C@@H]1C[C@@H]2O[C@]2(C)CCC[C@H](C)[C@H](O)[C@@H](C)C(=O)C(C)(C)[C@@H](O)CC(=O)N1 [Ixabepilone]", "CLASS NAME": 0.0}
{"MOLECULE": "CC1(C)CCC(c2ccc(Cl)cc2)=C(CN2CCN(c3ccc(C(=O)NS(=O)(=O)c4ccc(N[C@H](CCN5CCOCC5)CSc5ccccc5)c(S(=O)(=O)C(F)(F)F)c4)cc3)CC2)C1 [Navitoclax]", "CLASS NAME": 1.0}

Now for a further molecule.
Identify whether the molecule CC(=O)[C@]1(O)Cc2c(O)c3c(c(O)c2[C@@H](O[C@H]2C[C@H](N)[C@H](O)[C@H](C)O2)C1)C(=O)c1ccccc1C3=O [Idarubicin] records EC50, CellTiter-Blue viability below 300 nM. 1.0
